- measuredTarget: human GnRH receptor (Homo sapiens, UniProt P30968)
- Construct: The cDNA for the human GnRH receptor is cloned into the plasmid expression vector, pcDNA 3; expressed in transfected cells; host or cells: HEK 293 cells, stably transfected (pcDNA 3); membrane preparation
- Sequence (P30968 1-328): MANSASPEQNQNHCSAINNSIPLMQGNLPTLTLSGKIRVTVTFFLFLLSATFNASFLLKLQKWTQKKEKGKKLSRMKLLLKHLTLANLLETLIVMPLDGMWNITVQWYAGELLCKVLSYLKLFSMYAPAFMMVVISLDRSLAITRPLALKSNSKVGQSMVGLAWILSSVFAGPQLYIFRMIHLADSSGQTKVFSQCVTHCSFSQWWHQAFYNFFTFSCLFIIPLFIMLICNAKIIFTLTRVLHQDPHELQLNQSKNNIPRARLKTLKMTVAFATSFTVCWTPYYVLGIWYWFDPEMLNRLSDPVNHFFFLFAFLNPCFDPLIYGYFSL
- assayText: GnRH receptor competitive radioligand binding assay (125I-GnRH-A, HEK 293 cell membranes)
- measurementConditions: compound at 10 μM; crude compounds; 125I-GnRH-A; lower value = higher inhibition; read-out: % Remaining 2nd Test (percent of specific binding remaining)
- Description: The cDNA for the human GnRH receptor is cloned into the plasmid expression vector, pcDNA 3 (In Vitrogen), and stably transfected in HEK 293 cells (a cell line developed by Dr. Stuart Sealfon, Mount Sinai Medical School, New York, N.Y.). […] The radioiodinated agonist analog of GnRH, [des-Gly^10, D-Ala^8]GnRH ethylamide (GnRH-A), is used as the labeled ligand. […] Fractions are assessed for biological activity by radioligand binding. […]
Label key: rule met means remaining activity at 10 µM under 50%; rule not met means remaining activity at 10 µM of 50% or more.

- CN(C)Cc1ccc(CN(Cc2ccc(OCc3ccccc3)c(OCc3ccccc3)c2)C(=O)c2ccco2)cc1: rule met
- CN(C)CCCOc1ccc(CN(Cc2cccc(CNC(=N)N)c2)C(=O)c2ccc3ccccc3c2)cc1: rule not met
- N=C(N)NCC1CCC(CN(Cc2cccc(Oc3ccc(Cl)cc3)c2)C(=O)c2ccc(Cl)nc2)CC1 (stereo not shown): rule not met
- CCCCC(CC)C(=O)N(Cc1cc2c(cc1C)C(C)(C)CCC2(C)C)CC1CCC(CNC(=N)N)CC1 (stereo not shown): rule not met
- Cc1cc2c(cc1CN(CCCCNC(=N)N)C(=O)c1ccc(Cl)nc1)C(C)(C)CCC2(C)C: rule not met
- Cc1cc2c(cc1CN(CCCCNC(=N)N)C(=O)C1CCCCC1)C(C)(C)CCC2(C)C: rule not met

---

- measuredTarget: human GnRH receptor (Homo sapiens)
- Construct: The cDNA for the human GnRH receptor is cloned into the plasmid expression vector, pcDNA 3; expressed in transfected cells; host or cells: HEK 293 cells, stably transfected (pcDNA 3); membrane preparation
- assayText: GnRH receptor competitive radioligand binding assay (125I-GnRH-A, HEK 293 cell membranes)
- measurementConditions: compound at 10 μM; average of 1st and 2nd test; read-out: Average % Remaining (percent of specific binding remaining)
- Protocol: The cDNA for the human GnRH receptor is cloned into the plasmid expression vector, pcDNA 3 (In Vitrogen), and stably transfected in HEK 293 cells (a cell line developed by Dr. Stuart Sealfon, Mount Sinai Medical School, New York, N.Y.). […] The radioiodinated agonist analog of GnRH, [des-Gly^10, D-Ala^8]GnRH ethylamide (GnRH-A), is used as the labeled ligand. […] Fractions are assessed for biological activity by radioligand binding. […]
endpointName: remaining activity at 10 µM (%)

* N=C(N)NCc1ccc(CN(CC23CC=CCC2C2CC=CCC2O3)C(=O)c2ccco2)cc1 (stereo not shown) | 53
* CC(=O)O[C@@H](C)C(=O)N(Cc1cc2c(cc1C)C(C)(C)CCC2(C)C)CC1CCC(CNC(=N)N)CC1 (stereo partly shown) | 57
* Cc1cc2c(cc1CN(CC1CCCC(CNC(=N)N)C1)C(=O)C1CCCCC1)C(C)(C)CCC2(C)C (stereo not shown) | 58
* CC(=O)N(Cc1cc2c(cc1C)C(C)(C)CCC2(C)C)CC1CCCC(CNC(=N)N)C1 (stereo not shown) | 55

Reference source for all entries: patent US6646137B1
